Exercise: for every item that follows, state its recorded PBM binding z-score.
System: LXRa homodimer (NR concentration 270 nM)
test: PBM binding z-score (relative to random genomic background probes); higher = stronger binding; sequences stand for … in GC…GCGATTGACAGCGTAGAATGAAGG
Reply: number alone, nothing else.

Here CCAACTAGGTCAAAGGACAGTGAAAGGCGACGTA was tested on LXRa homodimer (NR concentration 270 nM), and its PBM binding z-score came to 0.453

Here ATCGAAAGGTCCACGAGGTGAGTATACACCGTTT was tested on LXRa homodimer (NR concentration 270 nM), and its PBM binding z-score came to -0.0739

Here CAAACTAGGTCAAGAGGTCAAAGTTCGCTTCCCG was tested on LXRa homodimer (NR concentration 270 nM), and its PBM binding z-score came to 6.51

Here AACGAAAGGTCGAAGGTGAGTATACCCACCCGAA was tested on LXRa homodimer (NR concentration 270 nM), and its PBM binding z-score came to 0.129

Here TCGCCTAGGTCATGGGCCAGTATACCACGCGAAC was tested on LXRa homodimer (NR concentration 270 nM), and its PBM binding z-score came to 0.142

Here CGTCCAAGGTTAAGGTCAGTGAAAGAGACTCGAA was tested on LXRa homodimer (NR concentration 270 nM), and its PBM binding z-score came to 0.367

Here ACTTACGGCTCAACGAGGTTATAGCACGCGTATA was tested on LXRa homodimer (NR concentration 270 nM), and its PBM binding z-score came to 0.28

Here CGAACGAGGTCATTGACAGGACAGTGAATAGTAA was tested on LXRa homodimer (NR concentration 270 nM), and its PBM binding z-score came to 1.41

Here ATATGTAGGTTAACTGGGGTCATTCAGACTAGGC was tested on LXRa homodimer (NR concentration 270 nM), and its PBM binding z-score came to 5.57

Here AATACGGGGTCATCGTAGGCCAGAGTACGCACAG was tested on LXRa homodimer (NR concentration 270 nM), and its PBM binding z-score came to 4.62

Here CCTACTGGACCAAGGTCATTGATCAGTCAAAGCA was tested on LXRa homodimer (NR concentration 270 nM), and its PBM binding z-score came to 1.96

Here CAAAATAGGTCACGAAAGGTCAAAGTCGAATGAC was tested on LXRa homodimer (NR concentration 270 nM), and its PBM binding z-score came to 8.09

Here CGCACTAGGTCATCCAGGACAGTGAATACATTGA was tested on LXRa homodimer (NR concentration 270 nM), and its PBM binding z-score came to 0.736

Here ATATGTAGGTTGGGGTCATTCAGAAAGTAGGGAA was tested on LXRa homodimer (NR concentration 270 nM), and its PBM binding z-score came to 2.32

Here ATCGAAAGGTCGAAGGTGCGTATACCCACCCGAA was tested on LXRa homodimer (NR concentration 270 nM), and its PBM binding z-score came to 0.0571

Here GCTGCTAGGTCAACTGATGGTCATCTAAAGCTCG was tested on LXRa homodimer (NR concentration 270 nM), and its PBM binding z-score came to 0.86

Here GCTAGTTGGTCAGTAAAATGTCACACACCGGTCG was tested on LXRa homodimer (NR concentration 270 nM), and its PBM binding z-score came to -0.0317

Here CCTAGTGGGCCAAGGTCATTGATCAGTCAAAGCA was tested on LXRa homodimer (NR concentration 270 nM), and its PBM binding z-score came to 0.693

Here CGTCCGAGGTCAAGGTCAGTGAAAGAGACTCGAA was tested on LXRa homodimer (NR concentration 270 nM), and its PBM binding z-score came to 1.31

Here TGTCAAAGTTCAAAGGTCACGTAAGTATCCACAC was tested on LXRa homodimer (NR concentration 270 nM), and its PBM binding z-score came to 7.63

Here GCTGCTAGGTCAACTGATGGCCAGCTAAAGCTCG was tested on LXRa homodimer (NR concentration 270 nM), and its PBM binding z-score came to -0.17

Here GATACAGGGTCAGCTACAGGCCAGAGTATGGAAA was tested on LXRa homodimer (NR concentration 270 nM), and its PBM binding z-score came to -0.531

Here CGTCCAAGGTCATAGAGGTCAGTGAATGCCGAGT was tested on LXRa homodimer (NR concentration 270 nM), and its PBM binding z-score came to 5.25

Here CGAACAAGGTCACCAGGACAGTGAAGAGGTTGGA was tested on LXRa homodimer (NR concentration 270 nM), and its PBM binding z-score came to 0.443

Here TGTCAATGTTCAAAGGTAACGTAAGTATCCACAC was tested on LXRa homodimer (NR concentration 270 nM), and its PBM binding z-score came to -0.216

Here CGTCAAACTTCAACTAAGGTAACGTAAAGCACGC was tested on LXRa homodimer (NR concentration 270 nM), and its PBM binding z-score came to 0.473

###

Test system: PXR homodimer (NR concentration 270 nM)
test: PBM binding z-score (relative to random genomic background probes); higher = stronger binding; sequences stand for … in GC…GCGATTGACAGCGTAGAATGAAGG
Exercise: for every item that follows, state its recorded PBM binding z-score.

Memo: CCTTACGGGTCACTCCAGGTTATATCATCGGAGT , reported PBM binding z-score: 0.444

Memo: CGTCAAAGGTCAATGCTAGGTCAGTGAAAGCATT , reported PBM binding z-score: 1.66

Memo: CAAAATAGGTCACCGGAAGGTCAAAGTCCGCATG , reported PBM binding z-score: 1.96

Memo: CGTCAAAGGTCATAGGAGGTCAGTGAAGACAGAT , reported PBM binding z-score: 4.17

Memo: CCTACTGGGCCATTCAGAGGGCATTGATCATATG , reported PBM binding z-score: -0.0942

Memo: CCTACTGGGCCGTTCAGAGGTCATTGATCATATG , reported PBM binding z-score: 2.25

Memo: GGAACGAGGTCAAAGTTGATAGCATCTGTCGACG , reported PBM binding z-score: 2.54

Memo: CCTTAGGGGTCACTGACAGGTTATAGCATTTGGA , reported PBM binding z-score: 0.503

Memo: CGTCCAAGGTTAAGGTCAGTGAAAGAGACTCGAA , reported PBM binding z-score: 1.01

Memo: CAAAATAGGTCACAGAGGTCAAAGTCCGTGCGTA , reported PBM binding z-score: 10.7

Memo: CCTTACGGGTCCCTCCAGGTTATAGCATCGGAGT , reported PBM binding z-score: -0.00641

Memo: AATACAGGGTAACTAGGCCAGAGTAGGTACGAAT , reported PBM binding z-score: 0.0219

Memo: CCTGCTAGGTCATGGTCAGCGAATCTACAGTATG , reported PBM binding z-score: -0.875

Memo: TCTAGTTGGTCAAAGGTCACGCACTCGAAATGCG , reported PBM binding z-score: 1.96

Memo: CGTCCAAGGTCACGGTCAGTGAAAGAGACTCGAA , reported PBM binding z-score: 0.843

Memo: ACTCGGTGGACAAAGGTCAGAGCTACGCCAGTGA , reported PBM binding z-score: -0.0874

Memo: ATATGTAGGTTACCTGGGGTCATTCAGACTAGGC , reported PBM binding z-score: 4.76

Memo: ATCGAAAGGTCGAAGGTGAGCATACCCACCCGAA , reported PBM binding z-score: 0.092

Memo: TGTCAAAGTTCAAAGGTGACGTAAGTATCCACAC , reported PBM binding z-score: 5.43

Memo: CAAACAAGGTCACAGAGGTCAAAGTCCGTGCGTA , reported PBM binding z-score: 14.1

Memo: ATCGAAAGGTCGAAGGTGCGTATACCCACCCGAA , reported PBM binding z-score: -0.19

Memo: CGTCCAAGGTCATAGGGGGTCAGTGAAGACAGAT , reported PBM binding z-score: 6.58

Memo: TAGCCTAGGTCATGCGGGACAGTATAGTGTCGGC , reported PBM binding z-score: -0.102

Memo: CGTCCAAGGTCGAAGGTCAGTGAAGAGATGACGG , reported PBM binding z-score: 0.105

Memo: CAAACGAGGTCAAAGGTCAAAGTCGAGCCAACCA , reported PBM binding z-score: 5.27

Memo: CCTTACGGGTCACGAGGTCATAGCACGACGAGCG , reported PBM binding z-score: 2.24

###

System: THRa:RXRa (NR concentration 90 nM, RXRa partner concentration 90 nM)
test: PBM binding z-score (relative to random genomic background probes); higher = stronger binding; sequences stand for … in GC…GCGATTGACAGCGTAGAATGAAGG
If the reported PBM binding z-score equals or exceeds 4, assign rule met. If not, assign rule not met.

Asked: Answer whether PBM binding z-score of CAGCATAGGTCAGGGCCAGTATAGGAGGAACGTT is greater than or equal to 4.
Given back: rule not met

Asked: Answer whether PBM binding z-score of ATATGTAGGTTAGCTGGGGTCATTCACACTAGGC is greater than or equal to 4.
Given back: rule met

Asked: Answer whether PBM binding z-score of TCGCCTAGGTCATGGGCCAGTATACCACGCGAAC is greater than or equal to 4.
Given back: rule not met

Asked: Answer whether PBM binding z-score of ATCGAAAGGTCGTGAGGTAAGTATACAGAAAGGC is greater than or equal to 4.
Given back: rule not met
